# Measured On: Hfq G34A (Escherichia coli, UniProt P0A6X3 1-102, G34A)
# Experiment Notes: ITC; no Mg2+ listed; N 0.75 RNA/hexamer; ITC: 20 mM Tris-HCl pH 7.5, 100 mM NaCl, 20 mM KCl, 30°C; plus 5 mM MgCl2 for U6; Hfq hexamer 10-18 µM in cell
# Study Conditions: protein: recombinant; chain copies: 6; single strand
Readout Type: Kd (nM)
Field: numeric (nM). Do not append units.

*Q* Fill blank: measured Kd of the binder AAAAAAAAAAAAAAAAA (ssRNA) [A17] is ____.
*A* 26.3

Where do these numbers come from? They come from paper PMC11770335.
